Recorded values, source paper PMC11882969.

SYSTEM TESTED: hCB1 (Homo sapiens)
Sequence (P21554 whole entry): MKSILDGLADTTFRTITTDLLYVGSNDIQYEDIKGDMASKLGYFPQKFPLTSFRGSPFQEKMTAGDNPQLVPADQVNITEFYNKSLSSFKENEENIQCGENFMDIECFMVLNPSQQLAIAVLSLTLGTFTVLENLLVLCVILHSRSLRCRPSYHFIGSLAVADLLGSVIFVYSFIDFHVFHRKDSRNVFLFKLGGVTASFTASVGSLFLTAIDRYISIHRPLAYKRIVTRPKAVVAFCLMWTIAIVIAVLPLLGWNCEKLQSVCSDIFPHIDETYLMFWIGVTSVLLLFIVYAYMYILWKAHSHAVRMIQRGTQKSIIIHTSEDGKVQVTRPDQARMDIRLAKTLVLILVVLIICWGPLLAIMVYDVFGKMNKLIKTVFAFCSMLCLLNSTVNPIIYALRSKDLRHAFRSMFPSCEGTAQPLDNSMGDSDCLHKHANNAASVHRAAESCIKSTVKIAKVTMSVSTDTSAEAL
EXPERIMENT DESCRIPTION: bioSensAll ebBRET signaling profiling, hCB1
Type: cell-based
Parameters: host or cells: HEK293SL cells, transient PEI transfection
TEST CONTEXT: Gi1 biosensor; Log [Compound] (M) -10.0969
Recorded Gi1 hCB1 response, one value per entry.
Please reply with the number alone, leaving off any unit.

Consider the following illustrative entries.
| COMPOUND | Gi1 hCB1 response |
| --- | --- |
| Cc1cc(C(=O)N2CC3(CCC3)[C@H]2[C@@H]2CCCO2)nn1-c1cccc(C(F)(F)F)c1 | 0.1452 |
| Cc1cc(C(=O)N2CC3(CCC3)[C@@H]2[C@@H]2CCCO2)nn1-c1cccc(C(F)(F)F)c1 | -3.167 |
| Cc1cc(C(=O)NC(c2ccccc2)c2ccco2)nn1-c1cccc(C#N)c1 (centres unmarked) | -5.294 |
| Cc1cc(C(=O)NC(c2ccco2)c2ccco2)nn1-c1cccc(C(F)(F)F)c1 | -17.9838 |
| COC(=O)[C@](C)(NC(=O)c1cc(C)n(-c2cccc(C(F)(F)F)c2)n1)c1cccs1 | -7.576 |

Request: Any idea what its Gi1 hCB1 response is? The compound is COC(=O)[C@@H]1[C@@H]2CCC[C@@H]2CN1C(=O)c1cc(C)n(-c2cccc(C(F)(F)F)c2)n1
Result: -33.897

Request: Param item = COC(=O)[C@@H]1[C@@H]2CCC[C@@H]2CN1C(=O)c1cc(C)n(-c2cccc(Cl)c2)n1 (racemic) ; retrieve measured Gi1 hCB1 response.
Result: -9.255

Request: For the compound shown here, COC(=O)[C@@H]1[C@@H]2CC[C@@H]2CN1C(=O)c1cc(C)n(-c2cccc(C(F)(F)F)c2)n1 , give the reported Gi1 hCB1 response.
Result: -3.391
